All values here come from paper PMC5540273.

// values below are reported %Inh
# System: RSK1(Kin.Dom.1-N-terminal);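 further: KINOMEscan kinase panel screen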
# Construct: gene RPS6KA1
# Experimental conditions: concentration: 1 μM, replicates: in singlicate; n = 1
Measured endpoint: %Inh

>>> result("COc1ccc2cc(-c3nc(-c4ccccc4C(C)C)[nH]c3-c3ccncc3)ccc2c1")
"42%"
>>> result("c1ccc(-c2ccnc3[nH]ccc23)cc1")
"28%"
>>> result("Nc1ncnc2occ(-c3ccc4c(c3)CCN4C(=O)Cc3cc(F)ccc3F)c12")
"0%"
>>> result("Cc1cnc(N)c(/C=C/c2cncc(C(=O)NCCc3ccc(Cl)cc3Cl)c2)c1.Cl")
"9%"
>>> result("Cl.Cl.Cl.N#Cc1ccc(CCNc2nccc(-c3cccc(CN4CCNCC4)c3)n2)cc1")
"10%"
>>> result("CC(=O)c1c(C)c2cnc(Nc3ccn(C)n3)nc2n(C2CCCC2)c1=O")
"0%"
>>> result("Fc1ccc(-c2nc3n(c2-c2ccncc2)CCS3)cc1")
"0%"
>>> result("COc1ccc(Nc2nccc(N3CCC(NC(=O)C(C)c4ccc(Cl)cc4)CC3)n2)cc1 (stereo not drawn)")
"2%"
>>> result("CCc1ccc(-c2ccc3c(c2)-c2n[nH]cc2S(=O)(=O)N3C)cc1")
"0%"
